The binders listed here are annotated with their binding signal.
Target: T1, RBFOX1 RRM (Homo sapiens, UniProt Q9NWB1 109-208)
T1 sequence: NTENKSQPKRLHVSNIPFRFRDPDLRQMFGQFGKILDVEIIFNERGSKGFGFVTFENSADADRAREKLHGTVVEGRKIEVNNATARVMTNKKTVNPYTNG
Assay: EMSA; HiTS-Eq, 1 nM pool, 10 min; buffer printed only for the single-RNA assays: 10 mM Tris pH 7.5, 150 mM NaCl, 3.4 mM EDTA, 0.001% NP-40, 30 C
Settings: tags: His6 N-terminal (pET28a); label: 5' 32P
The full ranking holds about 16,000 sequences; the median of “ka relative to ugcaugu” is about 0.0091, and the highest 2% start at about 0.032. The entries come from a sample that favours the highest values as a whole.

UCGCCGG (DNA:RNA) RNA: GGGAGACCGGAAUUCAGAUUGUCCUCGCCGGUUAAAUCCCGUCGUAGCCACCA DNA 1: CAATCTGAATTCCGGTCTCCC DNA 2: TGGTGGCTACGACGGGATT
0.0169 KA relative to UGCAUGU

Recorded result, AUAACCC (DNA:RNA) RNA: GGGAGACCGGAAUUCAGAUUGUCCAUAACCCUUAAAUCCCGUCGUAGCCACCA DNA 1: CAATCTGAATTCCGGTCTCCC DNA 2: TGGTGGCTACGACGGGATT , binding signal: 0.00143 KA relative to UGCAUGU

Lookup result for UGUGGCC (DNA:RNA) RNA: GGGAGACCGGAAUUCAGAUUGUCCUGUGGCCUUAAAUCCCGUCGUAGCCACCA DNA 1: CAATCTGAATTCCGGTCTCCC DNA 2: TGGTGGCTACGACGGGATT ; measured binding signal: 0.0234 KA relative to UGCAUGU

Measured binding signal, UGGCCUC (DNA:RNA) RNA: GGGAGACCGGAAUUCAGAUUGUCCUGGCCUCUUAAAUCCCGUCGUAGCCACCA DNA 1: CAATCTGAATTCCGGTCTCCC DNA 2: TGGTGGCTACGACGGGATT : 0.0279 KA relative to UGCAUGU

# binding signal (binder: GGAUGAA (DNA:RNA) RNA: GGGAGACCGGAAUUCAGAUUGUCCGGAUGAAUUAAAUCCCGUCGUAGCCACCA DNA 1: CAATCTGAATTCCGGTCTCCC DNA 2: TGGTGGCTACGACGGGATT ) is 0.0174 KA relative to UGCAUGU

Source of measurements: paper PMC9911399
